Test: Colonic intubation study: plasma pharmacokinetics of rabeprazole and esomeprazole
Format: in vivo, human
Settings: male, human, plasma, other: colonic (nasoenteral tube into the transverse colon), 30 mg, TRT A: rabeprazole 30 mg solution in the colon over 20 hours; single dose; healthy males; N = 19
REPORTED METRIC: Cmax (ng/mL)
// note: answer is a bare numeric in ng/mL

Prompt: Form field: reported Cmax of COCCCOc1ccnc(C[S+]([O-])c2nc3ccccc3[nH]2)c1C (stereo not shown)
Completion: 18

----------
Test: Colonic intubation study: plasma pharmacokinetics of rabeprazole and esomeprazole
Assay type: in vivo, human
Settings: male, human, plasma, po, 40 mg, TRT E: esomeprazole 40 mg oral tablet; subset N = 14
REPORTED METRIC: Cmax (ng/mL)
// note: answer is a bare numeric in ng/mL

Prompt: Form field: reported Cmax of `COc1ccc2nc([S@@+]([O-])Cc3ncc(C)c(OC)c3C)[nH]c2c1`
Completion: 800

----------
Test: Colonic intubation study: plasma pharmacokinetics of rabeprazole and esomeprazole
Type: in vivo, human
Conditions: male, human, plasma, other: colonic (nasoenteral tube into the transverse colon), rabeprazole following colonic treatment; read-out: median plasma half-life (converted)
REPORTED METRIC: half-life

Prompt: Form field: reported half-life of COCCCOc1ccnc(C[S+]([O-])c2nc3ccccc3[nH]2)c1C (stereo not shown)
Completion: ~2 h

----------
Assay: Colonic intubation study: plasma pharmacokinetics of rabeprazole and esomeprazole
Type: in vivo, human
Details: male, human, plasma, other: colonic (nasoenteral tube into the transverse colon), 30 mg, TRT A: rabeprazole 30 mg solution in the colon over 20 hours; subset N = 14
REPORTED METRIC: AUC(0-t) (ng·h/mL)
// note: answer is a bare numeric in ng·h/mL

Prompt: Form field: reported AUC(0-t) of COCCCOc1ccnc(C[S+]([O-])c2nc3ccccc3[nH]2)c1C (stereo not shown)
Completion: 290

----------
Assay: Colonic intubation study: plasma pharmacokinetics of rabeprazole and esomeprazole
Type: in vivo, human
Details: male, human, plasma, other: colonic (nasoenteral tube into the transverse colon), 30 mg, TRT A: rabeprazole 30 mg solution in the colon over 20 hours; N = 19; read-out: AUCinf (mean)
REPORTED METRIC: AUC(0-inf)

Prompt: Form field: reported AUC(0-inf) of COCCCOc1ccnc(C[S+]([O-])c2nc3ccccc3[nH]2)c1C (stereo not shown) [Rabeprazole]
Completion: 332 ng·h/mL

----------
Test: Colonic intubation study: plasma pharmacokinetics of rabeprazole and esomeprazole
Format: in vivo, human
Details: male, human, plasma, other: colonic (nasoenteral tube into the transverse colon); colonic treatment compared to oral tablets, dose-normalized basis; read-out: percent relative bioavailability (colonic bioavailability)
REPORTED METRIC: bioavailability

Prompt: Form field: reported bioavailability of COCCCOc1ccnc(C[S+]([O-])c2nc3ccccc3[nH]2)c1C (stereo not shown)
Completion: ~40%

----------
Assay: Colonic intubation study: plasma pharmacokinetics of rabeprazole and esomeprazole
Assay type: in vivo, human
Settings: male, human, plasma, po, 20 mg, TRT C: rabeprazole 20 mg oral tablet; N = 19; read-out: t1/2 (median) (converted)
REPORTED METRIC: half-life
Value and unit, in that order.

Prompt: Form field: reported half-life of COCCCOc1ccnc(C[S+]([O-])c2nc3ccccc3[nH]2)c1C (stereo not shown) [Rabeprazole]
Completion: 57.6 min

----------
Experiment: Colonic intubation study: plasma pharmacokinetics of rabeprazole and esomeprazole
Format: in vivo, human
Conditions: male, human, plasma, po, 20 mg, TRT C: rabeprazole 20 mg oral tablet; N = 19; read-out: Tmax (median)
REPORTED METRIC: Tmax (h)
// note: answer is a bare numeric in h

Prompt: Form field: reported Tmax of COCCCOc1ccnc(C[S+]([O-])c2nc3ccccc3[nH]2)c1C (stereo not shown)
Completion: 4.5

Each recorded value in this set is attributed to patent US20070298105A1.
